System: Fibroblast
Assay: Multiplex assay against human fibroblast
Type: toxicity, cell-based
Conditions: 48 h, 10 µM, compound concentration 10 uM, replicate 2
Non-standard residues stand in square brackets, D forms with d. Residues, ends and D or L forms follow the SMILES beside them.
# Population Normal (%) per record follows
# output: bare number, implied unit %

// below: answered compounds
COMPOUND	EXPERIMENTAL READOUT	ASSAY VALUE
COc1c(Nc2ccc(S(C)(=O)=O)nc2C)ncnc1OC1CCN(C(=O)OC(C)C)CC1	Population Normal (%)	97
CC(C)C[C@@H]1NC(=O)[C@@H](C(C)C)NC(=O)[C@@H]2CCCN2C(=O)[C@@H](CC(=O)O)NC(=O)[C@@H](Cc2c[nH]c3ccccc23)NC1=O [BQ-123] (cyclo(L[dW][dD]P[dV]))	Population Normal (%)	93

Measured Population Normal (%), CN1CCN(c2ccc(Nc3c4ccccc4nc4ccccc34)cc2)CC1.Cl.Cl.O : 61

Measured Population Normal (%), Cl.Cl.OCCOCCN1CCN(C(c2ccccc2)c2ccc(Cl)cc2)CC1 (centres undefined) [HYDROXYZINE HYDROCHLORIDE] : 94

Measured Population Normal (%), CN(C)C(=O)Cn1cc(-c2ccc(-c3nnc4ccccn34)cc2)cn1 : 96

Measured Population Normal (%), COc1ccc2c(c1OCc1ccccc1)C[C@@H](C(=O)O)N(C(=O)C(c1ccccc1)c1ccccc1)C2 : 92

Measured Population Normal (%), COc1cc(OC2CCN(C(C)=O)CC2)ccc1C(=O)N1CCC(N2C(=O)OCc3ccccc32)CC1 : 96

Measured Population Normal (%), CN1CCN2c3ccccc3Cc3ccccc3C2C1.Cl (centres undefined) [MIANSERIN HYDROCHLORIDE] : 96

Measured Population Normal (%), CCC(=O)OCC(=O)[C@@]1(OC(=O)CC)[C@@H](C)C[C@H]2[C@@H]3CCC4=CC(=O)C=C[C@]4(C)[C@@]3(Cl)[C@@H](O)C[C@@]21C [BECLOMETHASONE DIPROPIONATE] : 96
